Tested on: U2OS
Test: Multiplex assay against U2OS
Format: toxicity, cell-based
Details: human, 12 h, 1 µM, compound concentration 1 uM, replicate 2
# note: exactly 8% is not below, so it is no (0); use yes (1) for Population Membrane Permeable-Phenotype (%) strictly under it

CC(C)Oc1ccc(C(=O)N[C@H](CNC(=O)CN(C)C)Cc2ccc(-c3cn4cccc([C@H](C)O)c4n3)cc2)cc1Cl [GSK-923295A]; no (0)
N#Cc1cnc(Nc2cc(NC[C@H]3CNCCO3)c(C(F)(F)F)cn2)cn1; no (0)

## Input Lab log: compare recorded Population Membrane Permeable-Phenotype (%) with 8%; is it strictly lower for CN(C)C/C=C/C(=O)Nc1cc2c(Nc3ccc(F)c(Cl)c3)ncnc2cc1O[C@H]1CCOC1.O=C(O)/C=C\C(=O)O.O=C(O)/C=C\C(=O)O [AFATINIB DIMALEATE] ?
## Output no (0)

## Input Would you kindly verify if Population Membrane Permeable-Phenotype (%) of CCCn1c(=O)c2[nH]c(C34CC5CC(CC3C5)C4)nc2n(CCC)c1=O is strictly less than 8%?
## Output no (0)

## Input Would you kindly verify if Population Membrane Permeable-Phenotype (%) of CNC(=O)c1cc(Oc2ccc(NC(=O)Nc3cc(C(C)(C)C)nn3-c3ccc4ncccc4c3)c(F)c2)ccn1 is strictly less than 8%?
## Output no (0)

## Input In plain terms, does CNc1oc(-c2cccc3ccccc23)nc1C#N come in under 8% for Population Membrane Permeable-Phenotype (%)?
## Output yes (1)

## Input Determine whether this molecule shows Population Membrane Permeable-Phenotype (%) lower than 8% (ties excluded): CCc1cc2c(cc1CC)CC(NC[C@H](O)c1ccc(O)c3[nH]c(=O)ccc13)C2
## Output yes (1)

## Input Answer whether the molecule O=C(O)c1ccc2cc(-c3ccc(O)c(C45CC6CC(CC(C6)C4)C5)c3)ccc2c1 has Population Membrane Permeable-Phenotype (%) strictly less than 8%
## Output yes (1)

## Input Is Population Membrane Permeable-Phenotype (%) of COc1cc2c(NC3CCN(C(C)C)CC3)nc(N3CCC(F)(F)CC3)nc2cc1OCCCN1CCCC1 strictly below 8%?
## Output yes (1)
